Measured Ki values are reported for all entries that follow.
Target: Cathepsin K (Homo sapiens, UniProt P43235)
Sequence (P43235 whole entry): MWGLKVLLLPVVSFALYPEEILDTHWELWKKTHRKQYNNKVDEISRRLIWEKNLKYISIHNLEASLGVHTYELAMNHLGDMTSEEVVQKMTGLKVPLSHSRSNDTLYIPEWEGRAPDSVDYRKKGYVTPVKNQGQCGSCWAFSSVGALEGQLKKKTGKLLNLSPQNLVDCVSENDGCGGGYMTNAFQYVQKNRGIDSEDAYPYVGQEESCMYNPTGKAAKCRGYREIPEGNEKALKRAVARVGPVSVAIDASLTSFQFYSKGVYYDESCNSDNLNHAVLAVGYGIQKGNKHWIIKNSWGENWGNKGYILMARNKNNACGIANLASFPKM
Assay: Competitive inhibition of human recombinant cathepsin K using Z-FR-MCA fluorogenic substrate by Dixon plot analysis
assay endpoint: Ki (µM)

compound=CC(C)[C@H](NC(=O)[C@H](CCCNC(=N)N)NC(=O)N[C@@H](Cc1ccccc1)C(=O)O)C(=O)NC1=CN(C(=N)N)CCC1 target_desc="Cathepsin K (Homo sapiens, UniProt P43235)" value_units=µM observed_result=0.393
compound="CC(C)[C@H](NC(=O)[C@H](CCCNC(=N)N)NC(=O)N[C@@H](Cc1ccccc1)C(=O)O)C(=O)NC1CCCN(C(=N)N)C1O (stereo in doubt; form 2)" target_desc="Cathepsin K (Homo sapiens, UniProt P43235)" value_units=µM observed_result=0.069
compound="CC(C)[C@H](NC(=O)[C@H](CCCNC(=N)N)NC(=O)N[C@@H](Cc1ccccc1)C(=O)O)C(=O)NC1CCCN(C(=N)N)C1O (stereo in doubt; form 1)" target_desc="Cathepsin K (Homo sapiens, UniProt P43235)" value_units=µM observed_result=0.105
compound="CC(C)[C@H](NC(=O)[C@H](CCCNC(=N)N)NC(=O)N[C@@H](Cc1ccccc1)C(=O)O)C(=O)NC1CCCN(C(=N)N)C1=O (some centres undefined)" target_desc="Cathepsin K (Homo sapiens, UniProt P43235)" value_units=µM observed_result=0.163
